Assign protein stability index to each entry below.
B1: NECAB1 (parent)
chain: FSPNSPQFNVSGPGLLEEDNQWMT

variants of: B1; assay: protein stability index of a GFP-peptide fusion (GPS, HEK-293T) (PSI 1-6); higher = more stable; conditions: c terminus: a fixed tail appended;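 note: lentivirally expressed fusions sorted by FACS into six bins by GFP to DsRed ratio, PSI derived from sequencing read proportions per bin multiplied by bin number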
One number for each entry.

Record excerpt, results attached:
{"biopolymer_sequence": "FSPNSPQFNVSGPGLLEEDNQWMC [T24C]", "observed_value": 2.91}
{"biopolymer_sequence": "FSPNSPQFNVSGPGLREEDNQWMT [L16R]", "observed_value": 3.12}
{"biopolymer_sequence": "FSPNSPQFNVSGPGLLEYDNQWMT [E18Y]", "observed_value": 1.82}
{"biopolymer_sequence": "FSPNSPQFRVSGPGLLEEDNQWMT [N9R]", "observed_value": 2.32}
{"biopolymer_sequence": "FSPNSPQFNVSGPGLLENDNQWMT [E18N]", "observed_value": 2.83}

Working through the 5 variants below one at a time, give protein stability index for each.
1. FSPNSPQFNVSGPCLLEEDNQWMT [G14C]
2. FSPNSPQFNVSGPGLLEEDNQWQT [M23Q]
3. FSPNSPQFNVSGPGLLEENNQWMT [D19N]
4. FSPNSPQFNVSGEGLLEEDNQWMT [P13E]
5. FSPNSPQFNVSGPGLLESDNQWMT [E18S]

**A:**
1: 3.32; 2: 3.43; 3: 2.57; 4: 3.58; 5: 1.88

Working through the 6 variants below one at a time, give protein stability index for each.
1. FSPNSPQFNVSGPGQLEEDNQWMT [L15Q]
2. FSPNSPQFNVSGPGLLEEDWQWMT [N20W]
3. FSPNSPQFNVSGPGLLEEDNQPMT [W22P]
4. FSPNSPQFNVSGPGLSEEDNQWMT [L16S]
5. FSPNSPQFNVSGPGLLEEDNPWMT [Q21P]
6. FSPNSPQFNVSGPGLLEEINQWMT [D19I]

**A:**
[3.06, 2.46, 4.21, 3.23, 2, 2.55]
